Test system: human G12D mutant KRAS-positive pancreatic cancer line AsPC-1
Assay: Non-anchorage-dependent cell growth inhibitory effect, spheroid 3D cell culture (Test Example 2)
Format: cell-based
Conditions: Homo sapiens, ASPC1, 144 h; AsPC-1 spheroid 3D culture, 6 days, CellTiter Glo 2.0
pIC50: −log10 of the molar value.
measurement_type: pIC50

compound: Cc1c(F)cc2[nH]ncc2c1-c1c(C2CC2)cc2c(N3C[C@@H]4C[C@H]3CN4)nc(OC3CCOCC3)nc2c1OCc1ccc(C(=O)N2CCN(C(C)C(=O)c3ccc4c(c3)CN(C(=O)c3cc(C(C)C)c(O)cc3O)C4)CC2)cc1 (some centres unmarked)
endpoint_result: 5.13
--
compound: Cc1c(F)cc2[nH]ncc2c1-c1c(C2CC2)cc2c(N3C[C@@H]4C[C@H]3CN4)nc(OC3CCOCC3)nc2c1OCc1ccc(CN2CCN(C(=O)c3ccc4c(c3)CN(C(=O)c3cc(C(C)C)c(O)cc3O)C4)CC2)cc1 (atropisomer, axis not shown)
endpoint_result: 5.41

* * *

System: human G12D mutant KRAS-positive pancreatic cancer line AsPC-1
Experiment: Non-anchorage-dependent cell growth inhibitory effect, spheroid 3D cell culture (Test Example 2)
Type: cell-based
Details: Homo sapiens, ASPC1, 144 h; AsPC-1 spheroid 3D culture, 6 days, CellTiter Glo 2.0
measurement_type: IC50 (µM)

molecule: Cc1c(F)cc2[nH]ncc2c1-c1c(C2CC2)cc2c(N3C[C@@H]4C[C@H]3CN4)nc(OC3CCOCC3)nc2c1OCc1ccc(C(=O)N2CCN(C(=O)c3ccc4c(c3)CN(C(=O)c3cc(C(C)C)c(O)cc3O)C4)C[C@H]2C)cc1 (atropisomer, axis not shown)
endpoint_result: 2.8
--
molecule: Cc1c(F)cc2[nH]ncc2c1-c1c(C2CC2)cc2c(N3C[C@@H]4C[C@H]3CN4)nc(OC3CCOCC3)nc2c1OCc1ccc(C(=O)N2CCC3(CC2)CN(Cc2ccc4c(c2)CN(C(=O)c2cc(C(C)C)c(O)cc2O)C4)C3)cc1 (atropisomer, axis not shown)
endpoint_result: 3.7
